Test system: SNB-19 CNS
Experiment: NCI-60 one-dose screen, 48 h
Conditions: 10 µM unless noted
The panel holds about 83,000 compounds, 20% with a hit somewhere; the sample as a whole holds those more often. The source made the active and inactive calls. Rule for the calls: active = growth percent below 10; inactive = the rest.
Pick one and only one: active, inactive

Field: example entries. Status: answers known.
molecule	class.assignment
Nc1n[nH]c2ccc([C@@H]3Nc4cc5c(cc4[C@H]4C6CCC(C6)[C@@H]34)C(=O)NC5)cc12 (stereo partly drawn)	inactive
Cc1ccc(O)c(N2C(=NCc3ccco3)NS(=O)(=O)c3cnccc32)c1	inactive
O=C1/C(=C/c2ccccc2)SC(=S)N1CCc1ccc(O)cc1	inactive

Input: What outcome does the record of this test show for "COc1ccc(/C=C/C(=O)c2ccc(O)c(CN3CCN(c4cc5c(cc4F)c(=O)c(C(=O)O)cn5C4CC4)CC3)c2)cc1" ?
Output: inactive

Input: Moving on to "O=[N+]([O-])c1cnc(N2CCN(CC3CC3)CC2)nc1N1CCN(CC2CC2)CC1"
Output: inactive

Input: Do the same for COc1ccc(C2CC(c3ccc(Cl)cc3)=NN2/C=C2\SC(=S)N(NC(=O)Cc3ccccc3Nc3c(Cl)cccc3Cl)C2=O)cc1 (stereo not drawn) please
Output: inactive

Input: Ok, now "CCOC(=O)c1sc(Nc2ccc(Cl)cc2)nc1C"
Output: inactive

----------
System: SW-620 colon
Assay: NCI-60 one-dose screen, 48 h (100 = growth as untreated, 0 = no growth, -100 = all killed)
Conditions: 10 µM unless noted
Compounds without any hit were thinned out: in the full panel of roughly 83,000, 20% have a hit.
observable: growth (%)
Supply the numeric figure in %, leaving out any unit text.

Study these solved cases before continuing.
compound	system.name	observable	recorded.number
O=C(Cc1ccc(/C=C/C(=O)c2ncc[nH]2)cc1)Nc1ccccc1	SW-620 colon	growth	14.2
O=C1/C(=C/c2ccccc2)SC(=S)N1CCc1ccc(O)cc1	SW-620 colon	growth	95.6
C=CCSSC1N=CNc2nc[nH]c21 (stereo not given)	SW-620 colon	growth	35.8
CSc1nc(Nc2cccc(NC(=O)/C(C#N)=C/c3c(Cl)cccc3Cl)c2)c(C#N)c(-c2cccc([N+](=O)[O-])c2)n1	SW-620 colon	growth	38.1

Proceed to the following item.
Input: Reported growth for "C=C1C(=O)O[C@H]2[C@H]1CC/C(COC(=O)NCCc1ccc(OC)c(OC)c1)=C\CC[C@@]1(C)O[C@@H]21" : what is it?
Output: 18.9

----------
Tested on: UACC-62 melanoma
Assay: NCI-60 one-dose screen, 48 h
Settings: 10 µM unless noted
The panel holds about 83,000 compounds, 20% with a hit somewhere; the sample as a whole holds those more often. The source made the active and inactive calls. Rule for the calls: active = growth percent below 10; inactive = the rest.
Hello, when you answer, please use one of the following outcomes: Y for active, N for inactive

Example entries begin here.
compound	class.assignment
COc1cc(-c2nn(-c3ccc(C(=O)O)cc3)cc2C(=O)O)ccc1O	N
COc1cccc(-c2nc3sccn3c2-c2ccnc(NCCNS(=O)(=O)c3ccc(F)cc3)c2)c1	Y
O=C(Cc1ccc(/C=C/C(=O)c2ncc[nH]2)cc1)Nc1ccc(F)cc1	N
CN1CCN(CCCOc2cccc3nc(Nc4cc(Cl)cc(Cl)c4)ccc23)CC1	Y
Cc1cc(N2CCN(C)CC2)nc(NC2CCCC(Nc3ccnc4cc(Cl)ccc34)C2)n1 (configuration not stated)	Y

With those in mind, consider the next compound.
Input: // return assay outcome for "COC(=O)[C@]12CCC(C)(C)C[C@H]1[C@H]1C(=O)C[C@@H]3[C@@]4(C)c5c([nH]c6ccccc6c5=O)C(C)(C)[C@@H]4CC[C@@]3(C)[C@]1(C)CC2"
Output: N

----------
Tested on: MCF7 breast
Assay: NCI-60 one-dose screen, 48 h (100 = growth as untreated, 0 = no growth, -100 = all killed)
Details: 10 µM unless noted
This is part of a sample that, as a whole, favours compounds with a hit. Of some 83,000 tested, about 20% had one in any assay.
observable: growth (%)
Report the value in % with no unit label.

Please review the entries below; each comes with its answer.
compound	system.name	unit.text	growth
c1ccc(-c2c(-c3ccccc3)[n+](Cc3ccc4ccccc4c3)c(-c3ccc(-c4nc5ccccc5s4)cc3)n2Cc2ccc3ccccc3c2)cc1	MCF7 breast	%	-65.5
CSc1nc(NCc2ccccc2)c(C#N)c(-c2cccc([N+](=O)[O-])c2)n1	MCF7 breast	%	91.8
O=C1Nc2c(ccc(Cl)c2Cl)/C1=C\c1ccc(C(F)(F)F)cc1	MCF7 breast	%	52.1
COc1cc2nc(N3CCCC3)nc(NCCc3ccccc3)c2cc1OC	MCF7 breast	%	35.4
CC(C)(C)c1cc(C(C)(C)C)cc(S(=O)(=O)Nc2cc3ccccc3cc2C(=O)NCCN)c1	MCF7 breast	%	-10.6

Input: Short answer please: growth, MCF7 breast, entry "Brc1ccc(-c2csc(Nc3ccccn3)n2)cc1"
Output: 34.5

Input: Same question for C=CCSSC1N=CNc2nc[nH]c21 (stereo not drawn) please.
Output: 4.28

Input: Now consider "O=C1Nc2cc(-c3ccc(O)cc3)ccc2/C1=C/c1ccc[nH]1" .
Output: 1.73

----------
Test system: NCI-H522 lung
Experiment: NCI-60 one-dose screen, 48 h (100 = growth as untreated, 0 = no growth, -100 = all killed)
Conditions: 10 µM unless noted
The panel holds about 83,000 compounds, 20% with a hit somewhere; the sample as a whole holds those more often.
This listing pairs compounds with measured growth.
State the answer as a number, implicitly in %.

Observe how each entry below is paired with its result.
compound	unit.text	growth
CCN1CCN(c2nc(NCCCNc3ccnc4cc(Cl)ccc34)c3ccccc3n2)CC1	%	-21.5
CNC(=O)c1cc(Oc2ccc(NC(=O)Nc3ccc(Cl)c(SC)c3)c(F)c2)ccn1	%	17.5
COc1ccc(C2Nc3c(c(C(C)(C)C)nn3-c3ccccc3)C(=O)CS2)cc1 (stereo not given)	%	84.5

Input: What value of measured growth is listed for "CN(C)c1ccc(N=Nc2ccccn2)c(O)c1" ?
Output: 27.1

Input: What do you have for "CSc1nc(NCCN2CCOCC2)c(C#N)c(-c2cccc([N+](=O)[O-])c2)n1" ?
Output: 85.7

----------
Test system: COLO 205 colon
Experiment: NCI-60 one-dose screen, 48 h
Settings: 10 µM unless noted
This is part of a sample that, as a whole, favours compounds with a hit. Of some 83,000 tested, about 20% had one in any assay. The source made the active and inactive calls. How the source made its calls: active means growth percent below 10; inactive means the rest.
Pick one: Yes (active), No (inactive)

Consider the worked cases shown below.
compound	system.name	class.assignment
CCCCCC(=O)Oc1ccc(/C(=C(\C)c2ccc(OC)cc2)c2ccc(OCCN3CCCCC3)cc2)cc1	COLO 205 colon	Yes
COc1cc(C2CC(=O)c3ccccc3N2)cc(OC)c1OC (centres undefined)	COLO 205 colon	No
Nc1nc2ccc3[nH]ncc3c2c2c1CCCC2	COLO 205 colon	Yes
COc1cc2c(cc1-c1c(C)noc1C)ncc1nc(C3CCOCC3)n([C@@H](C)COC(F)F)c12	COLO 205 colon	No
O=C(NCCN1CCOCC1)Nc1ccc(-c2cc3c(Nc4ccc(Oc5cccc(C(F)(F)F)c5)c(Cl)c4)ncnc3s2)cc1	COLO 205 colon	Yes

Input: Hi, do you know how "CCOc1ccc(C(C)=O)cc1NC(=O)c1cccc(-c2nnn(CC)n2)c1" came out in this test?
Output: Yes

Input: // next record "Clc1ccc2c(NCCNc3nc(N4CCOCC4)nc4ccccc34)ccnc2c1"
Output: Yes

Input: Here is the next compound: Cc1ccc(C(SCC(N)C(=O)O)(c2ccccc2)c2ccc(C)cc2)cc1 (centres undefined)
Output: Yes

Input: What would you report for Nc1n[nH]c2ccc([C@@H]3Nc4cc5c(cc4[C@H]4C6CCC(C6)[C@@H]34)C(=O)NC5)cc12 (some centres undefined) ?
Output: Yes

----------
System: HCT-116 colon
Experiment: NCI-60 one-dose screen, 48 h
Conditions: 10 µM unless noted
About 83,000 compounds went through this panel and 20% of them were active in at least one assay; those are over-represented in the sample as a whole. The source made the active and inactive calls. How the source made its calls: active means growth percent below 10; inactive means the rest.
Reply using exactly one outcome from class 1 for active, class 0 for inactive

Some solved entries appear below for comparison.
molecule	system.name	class.assignment
NC(=O)c1cc(Cl)ccc1NC(=O)/C=C/c1ccccc1	HCT-116 colon	class 0
O=C(O)COc1ccc(Cl)cc1C1CCCCC1	HCT-116 colon	class 0
CCC#CC[C@H](O)C/C=C1/C(=O)C=C[C@@H]1C/C=C\CCCC(=O)OC	HCT-116 colon	class 1
COc1cc(C=Nc2oc(-c3ccccc3)c(-c3ccccc3)c2C#N)cc(CN2CCCCC2)c1O	HCT-116 colon	class 0

Input: Given "Cc1ccc(/C=C2\SC(=S)N(CC(=O)NCCCN3CCOCC3)C2=O)cc1" , state the outcome it received in this test.
Output: class 0

Input: Try the molecule "Cc1cc(C)nc(SC2=C(Nc3cc(Cl)ccc3O)C(=O)N(Cc3ccccc3)C2=O)n1"
Output: class 0
